Give measured pKd for each item. Keep answers brief.
- TESTED_TARGET: Inadl_8, Q8NI35
- Sequence (Q8NI35 1425-1530): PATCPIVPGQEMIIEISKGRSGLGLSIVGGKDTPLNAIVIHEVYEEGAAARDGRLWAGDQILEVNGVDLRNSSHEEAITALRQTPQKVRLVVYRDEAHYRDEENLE
- ASSAY_PROTOCOL: holdup assay
- Design: key: below the threshold = too weak to quantify, mostly under pKd 3.1 to 4
- PARTICULARS: plain residues with an end cap or a label only (N-terminal biotin on a linker: ttds)
Answers are plain numbers.

Each binder below has a reported value. Please supply its pKd.
1. PKRPFVESNV [TANC2, Q9HCD6]
2. DPRNTQTSQI [ABRAXAS2, Q15018]
3. LCALPKVTTV [AGMAT, Q9BSE5]

3.68
3.54
4.82
